molecular target: SARS-Cov-2 Receptor Binding Domain (RBD) protein (SARS-CoV-2, UniProt P0DTC2 319-541); assay: SPR (Carterra LSA), scFv captured via anti-V5, RBD as analyte, 1:1 fit
pKd: −log10 of the molar value.
Result Type: pKd

INSERT INTO results (binder, assay_result) VALUES
  ('COVID19_R01_A04 (scFv, V domains shown) VH: EVQLVESGGGLVQPGGSLRLSCAASGFTFSDHYMSWVRQAPGKGLEWVSAISTSGDSTFYADSVKGRFTISRDNSKNTLYLQMNNLRAEDTAVYYCARDRSYYLDYWGQGTLVTVSS VL: EIVMTQSPATLSVSPGERATLSCRASQSVRSNLAWYQQKPGQAPRLLIYGASTRATGIPARFSGSGSGTEFTLTISSLQSEDFAVYYCQQFGTSPPGLSFGGGTKVEIKR', 7.96),
  ('COVID19_R01_B10 (scFv, V domains shown) VH: EVQLVESGGGLVQPGGSLRLSCAASGFTVSSNYMSWVRQAPGKGLEWVSVIYPGGSTFYADSVKGRFTISRDNSKNTLYLQMNSLRAEDTAVYYCARDRSYYLDYWGQGTLVTVSS VL: EIVMTQSPATLSVSPGERATLSCRASQSVSSSYLAWYQQKPGQAPRLLIYGASTRATGIPARFSGSGSGTEFTLTISSLQSEDFAVYYCQQASSTPLTFGGGTKVEIKR', 7.52),
  ('COVID19_P04_D08 (scFv, V domains shown) VH: EVQLVESGGGLVQPGGSLRLSCAASGFTFTNYAMTWVRQAPGKGLEWVSTMSNIGGDTYYADSVKGRFTISRDNSKNTLYLQMNSLRAEDTAVYYCARDRRVYLDYWGQGTLVTVSS VL: DIQMTQSPSSLSASVGDRVTITCRASQSISSYLNWYQQKPGKAPKLLIYAASSLQSGVPSRFSGSGSGTEFTLTISSLQSEDFAVYYCQQYGSSPLTFGGGTKVEIKR', 7.39),
  ('COVID19_P04_E10 (scFv, V domains shown) VH: EVQLVESGGGLVQPGGSLRLSCAASGFSFSSYGMSWVRQAPGKGLEWVSAMNRDGSYIYYADSVKGRFTISRDNSKNTLYLQMNSLRAEDTAVYYCARDRSYYVGYWGQGTLVTVSS VL: EIVMTQSPATLSVSPGERATLSCRASQSVRSNLAWYQQKPGQAPRLLIYGASTRATGIPARFSGSGSGTEFTLTISSLQSEDFAVYYCQQRNNWPPTFGGGTKVEIKR', 8.36),
  ('COVID19_P04_B09 (scFv, V domains shown) VH: EVQLVESGGGLVQPGGSLRLSCAASGFTFSNSDMNWVRQAPGKGLEWVSAISGTGDTTEYADSVKGRFTISRDNSKNTLYLQMNSLRAEDTAVYYCARDRSLMLDYWGQGTLVTVSS VL: EIVMTQSPATLSVSPGERATLSCRASQSVRSNLAWYQQKPGQAPRLLIYGASTRATGIPARFSGSGSGTEFTLTISSLQSEDFAVYYCQQRNNWPPTFGGGTKVEIKR', 8.85),
  ('COVID19_P04_B03 (scFv, V domains shown) VH: EVQLVESGGGLVQPGGSLRLSCAASGFTFSNHYMSWVRQAPGKGLEWVSAISGSGGSTYYADSVKGRFTISRDNSKNTLYLQMNSLRAEDTAVYYCARDRSYYLDYWGQGTLVTVSS VL: EIVMTQSPATLSVSPGERATLSCRASQSIGTYLSWYQQKPGQAPRLLIYGASTRATGIPARFSGSGSGTEFTLTISSLQSEDFAVYYCQQSLSLPVTFGGGTKVEIKR', 7.71),
  ('COVID19_R01_D02 (scFv, V domains shown) VH: EVQLVESGGGLVQPGGSLRLSCAASGFTFDDYAMHWVRQAPGKGLEWVAIIYEGGSPHYADSVKGRFTISRDNSKNTLYLQMNSLRAEDTAVYYCARDRSGYLDYWGQGTLVTVSS VL: EIVMTQSPATLSVSPGERATLSCRASQSVSNNLAWYQQKPGQAPRLLIYDASTRATGIPARFSGSGSGTEFTLTISSLQSEDFAVYYCQQYNNWPPTFGGGTKVEIKR', 8.55);
